Source: patent US20170267762A1

biological target: T1, human PD-1 (construct not stated) (human, UniProt Q15116 25-167, limits assumed); assay: Biacore, antibody captured, PD-1 analyte
T1 construct: also called PD-1 analyte
T1 sequence (Q15116 25-167 limits assumed): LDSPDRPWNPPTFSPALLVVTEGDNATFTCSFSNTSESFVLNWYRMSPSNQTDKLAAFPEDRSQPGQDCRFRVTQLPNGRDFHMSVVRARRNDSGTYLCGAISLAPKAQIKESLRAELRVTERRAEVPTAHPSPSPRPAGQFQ
measure: koff (s⁻¹)
Numbers only, in s⁻¹.

input: // query koff value for entry 7D3 murine anti-PD-1 antibody (antibody, V domains shown, Purified hybridoma antibody; also called 7D3-mIgG1) VH: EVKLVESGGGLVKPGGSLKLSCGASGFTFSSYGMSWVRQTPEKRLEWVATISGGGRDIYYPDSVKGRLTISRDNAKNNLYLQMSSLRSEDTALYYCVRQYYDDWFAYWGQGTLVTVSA VL: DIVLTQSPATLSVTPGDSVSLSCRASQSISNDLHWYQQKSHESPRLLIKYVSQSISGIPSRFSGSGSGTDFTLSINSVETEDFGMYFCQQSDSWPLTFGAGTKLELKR
output: 2.83e-05
